Where do the numbers come from? From ChEMBL document CHEMBL3507680.

// reported cytotoxicity at 70.5 h per item
# Method Notes: Human HepG2 cell viability assay in 384 well format
# Format: toxicity, cell-based
# Design: dose 125 nL, time 70.5 hour; concentration not given beside the values
# Condition: HepG2 cells, read-out: Inhibition

{"Molecule": "O=C(c1ccco1)N1C[C@@H]2CN(c3ccccn3)C[C@@H]2C1", "cytotoxicity at 70.5 h / %": -0.814}
{"Molecule": "Cc1noc(C)c1CC(=O)Nc1ccn(CC(N)=O)n1", "cytotoxicity at 70.5 h / %": -5.49}
{"Molecule": "CN(C)S(=O)(=O)N1CCCC(c2cccc(Cc3ccccc3)n2)C1 (stereo unspecified)", "cytotoxicity at 70.5 h / %": 19}
{"Molecule": "CC(C)CNC(=O)CN1C=Nc2ccccc2S1(=O)=O", "cytotoxicity at 70.5 h / %": 20.2}
{"Molecule": "COC(=O)CCC(=O)N1CCC2(CN(Cc3ccccc3F)C2)C1", "cytotoxicity at 70.5 h / %": -7.6}
{"Molecule": "Cn1ccnc1C(=O)NCc1cc(=O)n2c(n1)CN(CC1CC1)CCC2", "cytotoxicity at 70.5 h / %": -4.68}
{"Molecule": "O=C(NCC1CCOC1)c1csc(-c2ccc(Cl)cc2)n1 (stereo unspecified)", "cytotoxicity at 70.5 h / %": -26.9}
{"Molecule": "Cc1ccc(S(=O)(=O)NC(=O)C2(c3ccccc3)CCC2)c(C)c1", "cytotoxicity at 70.5 h / %": -10.7}
{"Molecule": "CCCN(Cc1nccn1C)C(=O)C(CC)Nc1cccc(OC)c1 (stereo unspecified)", "cytotoxicity at 70.5 h / %": -3.17}
{"Molecule": "Cc1nc2c(c(NC(C)C)n1)CCN(C(=O)c1cc[nH]n1)CC2", "cytotoxicity at 70.5 h / %": -8.54}
{"Molecule": "O=C(NCCN1CCOCC1)NCc1ccccc1-n1cccn1", "cytotoxicity at 70.5 h / %": -0.678}
